SUBJECT_OF_TEST: cathepsin K (Homo sapiens)
Construct: the active enzyme was obtained as the enzyme fraction by using detergent containing lysis buffer; made in house; host or cells: HEK293T (GenHunter Corporation), transient expression; detergent lysate used as enzyme fraction
Sequence (P43235 115-329): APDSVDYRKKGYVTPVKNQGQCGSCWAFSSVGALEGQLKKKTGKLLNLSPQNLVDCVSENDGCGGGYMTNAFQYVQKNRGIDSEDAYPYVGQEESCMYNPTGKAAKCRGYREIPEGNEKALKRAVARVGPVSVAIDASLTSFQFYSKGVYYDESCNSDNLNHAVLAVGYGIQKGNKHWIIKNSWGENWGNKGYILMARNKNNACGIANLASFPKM
TEST_DETAILS: Cathepsin K inhibitory activity (fluorescent substrate Z-Leu-Arg-MCA)
Format: biochemical
COND: enzyme expressed in HEK293T; 15 min preincubation, 30 min reaction at room temperature, pH 5.5; read-out: Activity Intensity (cathepsin K inhibitory activity, pIC50 class) (converted)
Kindly supply the reported IC50 values for the records listed here.

Guide cases for IC50, answers given:
COMPOUND	RESULT
CC(C)(F)C[C@H](N[C@@H](c1ccccc1)C(F)(F)F)C(=O)N[C@@H](CCC#N)CNc1ccc(N2CCOCC2)cc1 [Compound 94]	≤ 3.16 nM
COc1ccc(NC[C@H](CCS(C)(=O)=O)NC(=O)[C@H](CC(C)C)N[C@@H](c2cccnc2)C(F)(F)F)c(OC)c1 [Compound 83]	3.16 to 31.6 nM
COc1ccc(NC[C@H](C)NC(=O)[C@H](CC(C)C)N[C@@H](c2ccc(S(C)(=O)=O)cc2)C(F)(F)F)c(OC)c1 [Compound 77]	3.16 to 31.6 nM
CC[C@@H](CNc1ccc(N2CCOCC2)cc1)NC(=O)C1(NC(c2ccccc2)C(F)(F)F)CCCCC1 (stereo partly shown) [Compound 11]	3.16 to 31.6 nM
CC[C@@H](CNc1ccc(OCCS(C)(=O)=O)cc1OC)NC(=O)[C@H](CC(C)C)N[C@@H](c1cccnc1)C(F)(F)F [Compound 39]	3.16 to 31.6 nM
CC(C)C[C@H](N[C@@H](c1ccccc1)C(F)(F)F)C(=O)N[C@@H](CCCNC(=N)N)CNc1ccc(N2CCOCC2)cc1 [Compound 101]	≤ 3.16 nM
CC[C@@H](CNc1ccc(N2CCC(C(=O)O)CC2)cc1)NC(=O)[C@H](CC(C)C)N[C@@H](Cc1ccccc1)C(F)(F)F [Compound 153]	3.16 to 31.6 nM
CC[C@@H](CNc1ccc(OC)nc1OC)NC(=O)[C@H](CC(C)(C)F)N[C@@H](c1ccc(Br)cc1)C(F)(F)F [Compound 19]	3.16 to 31.6 nM
CC[C@@H](CNc1ccc(-n2ccnc2)cc1)NC(=O)[C@H](CC(C)C)N[C@@H](c1ccccc1)C(F)(F)F [Compound 112]	31.6 to 10000 nM
CCOC(=O)C(F)(F)Oc1ccc(NC[C@H](CC)NC(=O)[C@H](CC(C)(C)F)N[C@@H](c2ccccc2)C(F)(F)F)c(OC)c1 [Compound 111]	31.6 to 10000 nM

Hi team, please reply with IC50 for each item in this list.
1. CC[C@@H](CNc1ccc(N2CCC[C@H](C(=O)O)C2)cc1)NC(=O)[C@H](CC(C)C)N[C@@H](c1ccccc1)C(F)(F)F [Compound 148]
2. CC[C@@H](CNc1ccc(N2CCC(C)(C(=O)O)CC2)cc1)NC(=O)[C@H](CC(C)C)N[C@@H](c1ccccc1)C(F)(F)F [Compound 154]
3. CC[C@@H](CNc1ccc(OCC(=O)O)cc1OC)NC(=O)[C@H](CC(C)C)N[C@@H](c1ccc(OC)nc1)C(F)(F)F [Compound 120]

["≤ 3.16 nM", "≤ 3.16 nM", "≤ 3.16 nM"]
